Target: T1, extracellular tau in the form of paired helical filaments (ePHF tau) (UniProt P10636-8 1-441, limits assumed)
T1 construct: Aggregated, hyperphosphorylated tau preparation; not a single defined polypeptide
T1 sequence (P10636 other isoform, or with tags, fused parts or gaps limits assumed): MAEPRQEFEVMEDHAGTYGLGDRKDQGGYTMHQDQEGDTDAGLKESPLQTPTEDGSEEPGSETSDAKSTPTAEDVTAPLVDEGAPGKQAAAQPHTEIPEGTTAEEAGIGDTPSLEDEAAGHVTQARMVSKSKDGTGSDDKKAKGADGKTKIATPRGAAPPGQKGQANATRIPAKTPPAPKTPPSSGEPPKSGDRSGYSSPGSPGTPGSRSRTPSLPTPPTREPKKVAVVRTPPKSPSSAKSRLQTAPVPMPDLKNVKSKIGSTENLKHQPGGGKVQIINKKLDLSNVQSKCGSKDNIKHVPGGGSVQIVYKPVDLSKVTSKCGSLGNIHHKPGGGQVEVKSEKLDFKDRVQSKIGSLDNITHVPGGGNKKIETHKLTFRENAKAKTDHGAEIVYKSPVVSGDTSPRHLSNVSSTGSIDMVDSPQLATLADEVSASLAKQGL
Assay: ePHF tau ELISA, ePHF coated; antibody at 18.5 ng/ml; anti-mouse-HRP
Quantity kind: OD450 (OD450)
# number only, unit OD450 dropped from output

- Binder: "anti-tau antibody MC1 expressed from viral genome construct MC1LF.P2AH (TAU_ITR83; SEQ ID NO: 2072) (antibody, V domains shown) VH: QVQLQQSGAELMKPGASVKISCKATGYTFSNYWIEWVKQRPGHGLEWIGEILPGSDSIKYNENFKGKATFTADTSSNTAYMQLSSLTSEDSAVYYCARRGNYPDYWGQGTTLTVSS VL: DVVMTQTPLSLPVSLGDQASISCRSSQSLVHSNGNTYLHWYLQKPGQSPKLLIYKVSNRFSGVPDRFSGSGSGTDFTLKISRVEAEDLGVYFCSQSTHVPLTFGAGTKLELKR"
  Unit descriptor: "OD450"
  OD450: 0.1

Dear colleague, please send me the reported OD450 for anti-tau antibody MC1 expressed from viral genome construct MC1LP2AH (TAU_ITR82; SEQ ID NO: 2071) (antibody, V domains shown) VH: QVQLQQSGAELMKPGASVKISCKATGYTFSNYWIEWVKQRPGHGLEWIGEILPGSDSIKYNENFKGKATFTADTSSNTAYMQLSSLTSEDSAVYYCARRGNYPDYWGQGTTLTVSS VL: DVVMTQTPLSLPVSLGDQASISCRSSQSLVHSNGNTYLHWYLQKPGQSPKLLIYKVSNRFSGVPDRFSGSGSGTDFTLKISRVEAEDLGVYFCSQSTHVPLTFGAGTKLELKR when you can.
0.1

Give OD450 for anti-tau antibody MC1 expressed from viral genome construct MC1LF.F2AH (TAU_ITR78; SEQ ID NO: 2067) (antibody, V domains shown) VH: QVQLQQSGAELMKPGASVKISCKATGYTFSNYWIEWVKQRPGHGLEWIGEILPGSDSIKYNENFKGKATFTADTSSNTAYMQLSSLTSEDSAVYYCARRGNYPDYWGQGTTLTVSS VL: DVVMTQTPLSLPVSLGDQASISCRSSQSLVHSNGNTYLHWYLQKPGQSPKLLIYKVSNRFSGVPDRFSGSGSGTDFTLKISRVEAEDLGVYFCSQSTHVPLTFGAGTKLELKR
0.2
